Test system: mice
assayRemarks: Tail Suspension Test in Mice (TST)
Format: in vivo
conditionSummary: Mus musculus, reduction in immobility vs control group, 1 mg/kg, po
Counter-ions that a name gives are not always drawn.
endpointLabel: inhibition in vivo at 1 mg/kg (%)
// units = %; emit number, no label

The cases that follow already have their inhibition in vivo at 1 mg/kg on record.
In [3]: df
Out[3]:
                                   molecule  measurement
0  COc1ccccc1N1CCN(CCCCOc2ccc(Cn3nccn3)cc2)CC1 [Example 11]           25
1  COc1ccccc1N1CCN(CCCCOc2ccc(CCn3ccnn3)cc2)CC1 [Example 50]         46.9
2  COc1ccccc1N1CCN(CCCCOc2ccc(CCn3ncnn3)cc2)CC1 [Example 51]         14.7
3  COc1ccccc1N1CCN(CCCCOc2ccc(CN(C)C)cc2)CC1 [Example 19, dihydrochloride]         50.6
4  COc1ccccc1N1CCN(CCCCOc2ccc(CCn3cncn3)cc2)CC1 [Example 48]         26.2

Exercise: Look at this molecule and give its reported inhibition in vivo at 1 mg/kg. COc1ccccc1N1CCN(CCCCOc2ccc(CCn3nnc(C)n3)cc2)CC1 [Example 54]
Solution: 31.8

Exercise: Can you handle COc1ccccc1N1CCN(CCCCOc2cccc(Cn3cnnn3)c2)CC1 [Example 7, hydrochloride] next?
Solution: 21.1

Exercise: Can you handle COc1ccccc1N1CCN(CCCCOc2ccc(Cn3ccnn3)cc2)CC1 [Example 12] next?
Solution: 12.7

====

Test system: mice
assayRemarks: Tail Suspension Test in Mice (TST)
Assay type: in vivo
conditionSummary: Mus musculus, reduction in immobility vs control group, 1 mg/kg, po
Measured inhibition in vivo at 1 mg/kg, listed per entry for reference.
// units = %; emit number, no label

In [3]: df
Out[3]:
                                   compound  assayedtarget  measurement
0  CN1CCN(Cc2ccc(OCCCCN3CCN(c4cccc(Cl)c4Cl)CC3)cc2)CC1           mice         14.1
1  CN(C)Cc1ccc(OCCCCN2CCN(c3cccc(Cl)c3Cl)CC2)cc1           mice         30.4
2  Clc1cccc(N2CCN(CCCCOc3ccc(CN4CCOCC4)cc3)CC2)c1Cl           mice         10.6

Here is another compound to look at.
Exercise: Look at this compound and give its reported inhibition in vivo at 1 mg/kg. CN(C)Cc1ccc(OCCCCN2CCN(c3ccccc3Cl)CC2)cc1
Solution: 26.8

====

assayedTarget: Serotonin 1A (5-HT1A) receptor (Rattus norvegicus, UniProt P19327)
Construct: The cortex tissue were homogenized in 30 volumes of ice-cold 50 mM Tris-HCl buffer; from tissue; host or cells: Sprague-Dawley rat brain cortex membranes
Sequence (P19327 whole entry): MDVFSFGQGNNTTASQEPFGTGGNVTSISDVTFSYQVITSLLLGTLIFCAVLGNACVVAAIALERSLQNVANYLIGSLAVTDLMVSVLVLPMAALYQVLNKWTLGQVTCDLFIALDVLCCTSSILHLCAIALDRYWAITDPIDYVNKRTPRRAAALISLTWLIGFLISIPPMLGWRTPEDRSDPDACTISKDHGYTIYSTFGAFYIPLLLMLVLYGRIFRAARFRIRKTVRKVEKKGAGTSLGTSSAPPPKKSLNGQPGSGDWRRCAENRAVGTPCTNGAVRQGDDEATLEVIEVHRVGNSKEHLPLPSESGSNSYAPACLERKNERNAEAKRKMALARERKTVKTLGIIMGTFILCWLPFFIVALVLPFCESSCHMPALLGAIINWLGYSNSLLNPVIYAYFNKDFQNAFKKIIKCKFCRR
assayRemarks: Serotonin 1A (5-HT1A) receptor inhibition assay, [3H]8-OH-DPAT binding to rat cortex membranes
Design: species or system Sprague-Dawley (SD) rats
conditionSummary: 10 nM test compound; 0.92 nM [3H]8-OH-DPAT; rat cortex homogenate; 60 min at 25° C.
Measured inhibition at 0.01 µM, listed per entry for reference.
// units = %; emit number, no label

The cases that follow already have their inhibition at 0.01 µM on record.
                                   compound  measurement
0  COc1ccccc1N1CCN(CCCCOc2ccc(CNc3nncs3)cc2)CC1         95.6
1  COc1ccccc1N1CCN(CCCCOc2ccc(CCn3ncnn3)cc2)CC1           47
2  Cc1nnnn1Cc1ccc(OCCCCN2CCN(c3cccc(Cl)c3Cl)CC2)cc1         24.8
3  COc1ccccc1N1CCN(CCCCOc2ccc(CNc3cc(C)on3)cc2)CC1         73.8

Exercise: Look at this compound and give its reported inhibition at 0.01 µM. COc1ccccc1N1CCN(CCCCOc2ccc(CCn3nnnc3C)cc2)CC1
Solution: 46

Exercise: Can you handle COc1ccccc1N1CCN(CCCCOc2ccc(CCn3ccnn3)cc2)CC1 next?
Solution: 51

Exercise: Can you handle COc1ccccc1N1CCN(CCCCOc2ccc(Cn3nnc(C)n3)cc2)CC1 next?
Solution: 56.4

Exercise: Can you handle COc1ccccc1N1CCN(CCCCOc2ccc(CCn3cnnn3)cc2)CC1 next?
Solution: 62

Exercise: Can you handle COc1ccccc1N1CCN(CCCCOc2cccc(Cn3nccn3)c2)CC1 next?
Solution: 51.6

Exercise: Can you handle COc1ccccc1N1CCN(CCCCOc2cccc(Cn3ccnn3)c2)CC1 next?
Solution: 45.2

====

Test system: mice
assayRemarks: Tail Suspension Test in Mice (TST)
Type: in vivo
conditionSummary: Mus musculus, reduction in immobility vs control group, 1 mg/kg, po
Measured inhibition in vivo at 1 mg/kg, listed per entry for reference.
// units = %; emit number, no label

Exercise: Look at this compound and give its reported inhibition in vivo at 1 mg/kg. COc1ccccc1N1CCN(CCCCOc2ccc(Cn3nnnc3C)cc2)CC1
Solution: 14.7

Exercise: Can you handle COc1ccccc1N1CCN(CCCCOc2cccc(Cn3ccnc3)c2)CC1 next?
Solution: 21.2

====

Measured inhibition at 0.01 µM, listed per entry for reference.
assayedTarget: Serotonin 1A (5-HT1A) receptor (Rattus norvegicus, UniProt P19327)
Construct: The cortex tissue were homogenized in 30 volumes of ice-cold 50 mM Tris-HCl buffer; from tissue; host or cells: Sprague-Dawley rat brain cortex membranes
assayRemarks: Serotonin 1A (5-HT1A) receptor inhibition assay, [3H]8-OH-DPAT binding to rat cortex membranes
Parameters: species or system Sprague-Dawley (SD) rats
conditionSummary: 10 nM test compound; 0.92 nM [3H]8-OH-DPAT; rat cortex homogenate; 60 min at 25° C.
Counter-ions that a name gives are not always drawn.
// units = %; emit number, no label

>>> print(df.to_string())
                                   compound                             assayedtarget  outputunit  measurement
0  COc1ccccc1N1CCN(CCCCOc2ccc(CNc3cc(C)no3)cc2)CC1 [Example 46]  Serotonin 1A (5-HT1A) receptor (Rattus norvegicus, UniProt P19327)           %         64.6
1  Clc1cccc(N2CCN(CCCCOc3ccc(Cn4ncnn4)cc3)CC2)c1Cl [Example 36]  Serotonin 1A (5-HT1A) receptor (Rattus norvegicus, UniProt P19327)           %         28.1
2  Clc1cccc(N2CCN(CCCCOc3ccc(CN4CCOCC4)cc3)CC2)c1Cl [Example 40]  Serotonin 1A (5-HT1A) receptor (Rattus norvegicus, UniProt P19327)           %         45.6
3  COc1ccccc1N1CCN(CCCCOc2ccc(Cn3nnc4ccccc43)cc2)CC1 [Example 14]  Serotonin 1A (5-HT1A) receptor (Rattus norvegicus, UniProt P19327)           %         51.1
4  COc1ccccc1N1CCN(CCCCOc2cccc(CN(C)C)c2)CC1 [Example 28]  Serotonin 1A (5-HT1A) receptor (Rattus norvegicus, UniProt P19327)           %         13.5
5  COc1ccccc1N1CCN(CCCCOc2cccc(Cn3nnnc3C)c2)CC1 [Example 27]  Serotonin 1A (5-HT1A) receptor (Rattus norvegicus, UniProt P19327)           %         40.9

Exercise: Look at this compound and give its reported inhibition at 0.01 µM. Clc1ccccc1N1CCN(CCCCOc2ccc(Cn3cncn3)cc2)CC1 [Example 23]
Solution: 17.2

Exercise: Can you handle COc1ccccc1N1CCN(CCCCOc2ccc(CNc3nccs3)cc2)CC1 [Example 22] next?
Solution: 53.4

Exercise: Can you handle COc1ccccc1N1CCN(CCCCOc2ccc(Cn3nnc(-c4ccccc4)n3)cc2)CC1 [Example 15] next?
Solution: 23.5

Exercise: Can you handle COc1ccccc1N1CCN(CCCCOc2ccc(Cn3cncn3)cc2)CC1 [Example 2] next?
Solution: 80.3

Exercise: Can you handle COc1ccccc1N1CCN(CCCCOc2ccc(Cn3ncc4ccccc43)cc2)CC1 [Example 13] next?
Solution: 50.4

Exercise: Can you handle COc1ccccc1N1CCN(CCCCOc2cccc(Cn3cnnn3)c2)CC1 [Example 7, hydrochloride] next?
Solution: 78.4

Exercise: Can you handle COc1ccccc1N1CCN(CCCCOc2cccc(Cn3cncn3)c2)CC1 [Example 6, hydrochloride] next?
Solution: 50.1

Exercise: Can you handle COc1ccccc1N1CCN(CCCCOc2ccc(Cn3nnnc3C)cc2)CC1 [Example 18] next?
Solution: 69.5

Exercise: Can you handle CN1CCN(Cc2ccc(OCCCCN3CCN(c4ccccc4Cl)CC3)cc2)CC1 [Example 35] next?
Solution: 73.3

Exercise: Can you handle COc1ccccc1N1CCN(CCCCOc2ccc(CCn3nccn3)cc2)CC1 [Example 49] next?
Solution: 45
